Target: T1, AXL-His (Sino Biological Inc., 6x His labels, molecular weight 47.5 Kda) (UniProt P30530-2 26-440, limits assumed)
T1 construct: Bought reagent; also called target antigen AXL-His; target antigen AXL; not shown: 6x His tag
T1 sequence (looked up): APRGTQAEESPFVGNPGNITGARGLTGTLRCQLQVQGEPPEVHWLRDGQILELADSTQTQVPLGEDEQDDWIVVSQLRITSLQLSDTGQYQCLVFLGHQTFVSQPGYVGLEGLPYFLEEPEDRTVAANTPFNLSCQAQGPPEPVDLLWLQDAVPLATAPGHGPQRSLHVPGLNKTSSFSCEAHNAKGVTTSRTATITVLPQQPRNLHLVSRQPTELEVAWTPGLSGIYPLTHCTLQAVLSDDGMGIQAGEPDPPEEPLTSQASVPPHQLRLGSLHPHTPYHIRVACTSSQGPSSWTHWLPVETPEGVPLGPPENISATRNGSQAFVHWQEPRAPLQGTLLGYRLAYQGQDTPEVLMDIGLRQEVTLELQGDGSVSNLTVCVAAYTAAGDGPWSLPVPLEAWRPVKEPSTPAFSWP
Test: SPR (Biacore T-200), antibody captured on chip, AXL-His as analyte
measurement_kind: koff (s⁻¹)
Answers are plain numbers, in s⁻¹.

Use the examples below as a reference point.
antibody 6G12M11 (antibody, human IgG1, kappa, V domains shown) VH: QVQLVQSGPGLVKPSQSLSLTCAVTGFSISSGYYWNWIRQFPGQKLEWMGYRSYDGSNNYNPSLKNRISITRDTSKNQFFLKLNSVTSEDTATYYCARGWLLHYTMDYWGQGTTVTVSS VL: EIVMTQSPSSVSVTLGQSASISCRSSRSLLHSNGFTYLYWYLQKPGQSPQLLIYQMSNLASGVPDRFSGSGSGTDFTLKISRVEAEDVGVYYCGQNLELPLTFGGGTKLEIKR	0.00114
antibody 6G12M31 (antibody, V domains shown) VH: QVQLVQSGPGLVKPSQSLSLTCSVTGFSISSGYYWNWIRQFPGQKLEWMGYRSYDGSNNYDPSLKNRISITRDTSKNQFFLKLNSVTSEDTATYYCARGWLLHYTMDYWGQGTTVTVSS VL: DIVMTQSPSSVSVTLGQSASISCRSSRSLLHSNGFTYLYWYLQKPGQSPQLLIYQMSNLASGVPDRFSGSGSGTDFTLKISRVEAEDVGVYYCGQNLELPLTFGGGTKLEIK	0.00116
antibody 6G12M21 (antibody, human IgG1, kappa, V domains shown) VH: QVQLVQSGPGLVKPSQSLSLTCSVTGFSISSGYYWNWIRQFPGQKLEWMGYRSYDGSNNYNPSLKNRISITRDTSKNQFFLKLNSVTSEDTATYYCARGWLLHYTMDYWGQGTTVTVSS VL: DIVMTQSPSSVSVTLGQSASISCRSSRSLLHSNGFTYLYWYLQKPGQSPQLLIYQMSNLASGVPDRFSGSGSGTDFTLKISRVEAEDVGVYYCGQNLELPLTFGGGTKLEIKR	0.00114

Prompt line: Return reported koff; argument: antibody 6G12M41 (antibody, V domains shown) VH: QVQLVQSGPGLVKPSQSLSLTCSVTGFSISSGYYWNWIRQFPGQKLEWMGYRSYDGSNNYGPSLKNRISITRDTSKNQFFLKLNSVTSEDTATYYCARGWLLHYTMDYWGQGTTVTVSS VL: DIVMTQSPSSVSVTLGQSASISCRSSRSLLHSNGFTYLYWYLQKPGQSPQLLIYQMSNLASGVPDRFSGSGSGTDFTLKISRVEAEDVGVYYCGQNLELPLTFGGGTKLEIK
Response line: 0.00119
